# TARGET_SYSTEM: UniProtKB Q9NYY3
# Sequence (Q9NYY3 whole entry, looked up): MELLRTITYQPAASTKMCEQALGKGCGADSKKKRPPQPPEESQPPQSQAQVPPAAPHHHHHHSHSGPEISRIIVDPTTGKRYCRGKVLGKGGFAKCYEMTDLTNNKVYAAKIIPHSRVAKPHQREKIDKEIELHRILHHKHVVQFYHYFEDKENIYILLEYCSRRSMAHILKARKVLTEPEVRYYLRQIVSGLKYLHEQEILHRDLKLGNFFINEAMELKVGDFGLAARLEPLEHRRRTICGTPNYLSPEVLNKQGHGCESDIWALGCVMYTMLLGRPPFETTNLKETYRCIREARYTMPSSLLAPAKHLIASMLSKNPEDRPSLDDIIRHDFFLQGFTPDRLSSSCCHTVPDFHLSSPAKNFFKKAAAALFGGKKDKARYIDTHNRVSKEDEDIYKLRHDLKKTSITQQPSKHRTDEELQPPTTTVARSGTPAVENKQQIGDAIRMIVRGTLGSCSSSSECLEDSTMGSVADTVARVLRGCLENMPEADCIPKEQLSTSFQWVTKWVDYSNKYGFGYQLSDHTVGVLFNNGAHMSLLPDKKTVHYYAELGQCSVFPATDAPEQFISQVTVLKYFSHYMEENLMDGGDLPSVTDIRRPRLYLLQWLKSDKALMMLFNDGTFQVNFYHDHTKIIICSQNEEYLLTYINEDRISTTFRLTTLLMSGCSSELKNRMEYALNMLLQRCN
# ASSAY_NOTES: radiometric filter-binding kinase assay, Kinase HotSpot
# ASSAY_CONTEXT: compound 0.5 µM; ATP 10 µM
Below, each entry is listed alongside its reported residual activity.

Some compounds with known residual activity results, for comparison:
Problem: I'm curious: which residual activity was measured for CS(=O)c1ccc(-c2nc(-c3ccc(F)cc3)c(-c3ccncc3)[nH]2)cc1 (stereo not given) tested on UniProtKB Q9NYY3?
Result: 95.6%

Problem: I'm curious: which residual activity was measured for O=C1Nc2ccccc2/C1=C\c1c(Cl)[nH]c2ccccc12 tested on UniProtKB Q9NYY3?
Result: 98.2%

Problem: I'm curious: which residual activity was measured for Oc1ccc(-c2nc(-c3ccc(F)cc3)c(-c3ccncc3)[nH]2)cc1 tested on UniProtKB Q9NYY3?
Result: 98.7%

Problem: I'm curious: which residual activity was measured for CC(C)n1cnc2c(Nc3cccc(Cl)c3)nc(NCCO)nc21 tested on UniProtKB Q9NYY3?
Result: 95.9%

Problem: I'm curious: which residual activity was measured for Nc1nc(Nc2ccc(S(N)(=O)=O)cc2)nn1C(=O)c1c(F)cccc1F tested on UniProtKB Q9NYY3?
Result: 94.2%

Problem: I'm curious: which residual activity was measured for O=C(Nc1ccc(Cl)cc1)c1ccccc1NCc1ccncc1 tested on UniProtKB Q9NYY3?
Result: 99.3%

New cases:
Problem: I'm curious: which residual activity was measured for Nc1n[nH]c2nnc(-c3c(-c4ccccc4)nn4ccccc34)cc12 tested on UniProtKB Q9NYY3?
Result: 107%

Problem: I'm curious: which residual activity was measured for Nc1nc(Nc2ccc(S(N)(=O)=O)cc2)nn1C(=S)Nc1c(F)cccc1F tested on UniProtKB Q9NYY3?
Result: 88.5%

Problem: I'm curious: which residual activity was measured for Cc1ccc(NC(=O)c2ccc(CN3CCN(C)CC3)cc2)cc1Nc1nc(-c2cccnc2)cs1 tested on UniProtKB Q9NYY3?
Result: 97.9%

Problem: I'm curious: which residual activity was measured for COc1cc2nccc(Oc3ccc(NC(=S)NC(=O)c4ccccc4C)cc3)c2cc1OC tested on UniProtKB Q9NYY3?
Result: 99.5%

---

# TARGET_SYSTEM: EPHA3 (human) (UniProt P29320)
# Sequence (P29320 whole entry, looked up): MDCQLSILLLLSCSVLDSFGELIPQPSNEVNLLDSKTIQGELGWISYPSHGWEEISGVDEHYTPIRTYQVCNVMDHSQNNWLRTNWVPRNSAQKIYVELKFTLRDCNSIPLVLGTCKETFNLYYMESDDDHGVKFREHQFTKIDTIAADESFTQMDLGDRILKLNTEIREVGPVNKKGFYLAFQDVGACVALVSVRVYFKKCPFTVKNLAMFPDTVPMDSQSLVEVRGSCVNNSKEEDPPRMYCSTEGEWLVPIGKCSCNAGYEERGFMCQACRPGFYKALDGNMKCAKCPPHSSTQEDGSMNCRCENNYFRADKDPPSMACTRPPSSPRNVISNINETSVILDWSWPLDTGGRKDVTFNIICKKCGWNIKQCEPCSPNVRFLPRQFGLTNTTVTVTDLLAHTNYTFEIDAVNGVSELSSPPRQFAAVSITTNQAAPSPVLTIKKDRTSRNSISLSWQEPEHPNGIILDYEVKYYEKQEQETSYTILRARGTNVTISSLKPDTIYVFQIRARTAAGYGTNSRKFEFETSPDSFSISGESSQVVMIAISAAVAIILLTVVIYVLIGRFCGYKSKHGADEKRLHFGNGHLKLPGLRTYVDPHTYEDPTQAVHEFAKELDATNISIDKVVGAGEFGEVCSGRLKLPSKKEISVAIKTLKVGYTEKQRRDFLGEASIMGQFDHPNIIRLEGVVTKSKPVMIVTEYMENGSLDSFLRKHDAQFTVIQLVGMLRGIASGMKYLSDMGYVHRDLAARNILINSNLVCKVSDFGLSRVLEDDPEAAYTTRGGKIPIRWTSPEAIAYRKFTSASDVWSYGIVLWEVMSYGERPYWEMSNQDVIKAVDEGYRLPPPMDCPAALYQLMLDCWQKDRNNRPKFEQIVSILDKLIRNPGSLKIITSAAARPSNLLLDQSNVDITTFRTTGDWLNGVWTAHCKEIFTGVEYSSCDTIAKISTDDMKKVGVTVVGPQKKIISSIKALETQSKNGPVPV
# ASSAY_NOTES: radiometric filter-binding kinase assay, Kinase HotSpot
# ASSAY_CONTEXT: compound 0.5 µM; ATP 10 µM
Below, each entry is listed alongside its reported residual activity.
Respond with the bare value in %.

Problem: Give the measured residual activity of Nc1n[nH]c2nnc(-c3c(-c4ccccc4)nn4ccccc34)cc12 .
Result: 97.8

New cases:
Problem: Give the measured residual activity of O=C(Nc1ccc(Cl)cc1)c1ccccc1NCc1ccncc1 .
Result: 92.1

Problem: Give the measured residual activity of COc1ccc(-c2cnc3c(-c4ccsc4)cnn3c2)cc1 .
Result: 93.4

Problem: Give the measured residual activity of Cc1cc2ncc(-c3ccccc3)nc2cc1C .
Result: 109

Problem: Give the measured residual activity of CCN1/C(=C/C(C)=O)Sc2ccc(OC)cc21 .
Result: 89.9

Problem: Give the measured residual activity of COc1cc2ncnc(Nc3ccc(F)c(Cl)c3)c2cc1OCCCN1CCOCC1 .
Result: 94.4

Problem: Give the measured residual activity of CC(C)(C)c1nc2c3ccc(F)cc3c3c(=O)[nH]ccc3c2[nH]1 .
Result: 89.2

Problem: Give the measured residual activity of Nc1nc(Nc2ccc(S(N)(=O)=O)cc2)nn1C(=O)c1c(F)cccc1F .
Result: 107

Problem: Give the measured residual activity of O=C1Nc2ccccc2/C1=C\c1c(Cl)[nH]c2ccccc12 .
Result: 95.1

Problem: Give the measured residual activity of CCCNC(=O)Nc1ccc(Oc2ncnc3cc(OC)c(OC)cc23)cc1Cl .
Result: 98.5

Problem: Give the measured residual activity of O=C1Nc2cc(Br)ccc2/C1=C1/Nc2ccccc2/C1=N\O .
Result: 81.9

Problem: Give the measured residual activity of Cc1ccc(NC(=O)c2ccc(CN3CCN(C)CC3)cc2)cc1Nc1nc(-c2cccnc2)cs1 .
Result: 90.3

Problem: Give the measured residual activity of CC(C)[C@H](CO)Nc1nc(Nc2cccc(Cl)c2)c2ncn(C(C)C)c2n1 .
Result: 105

Problem: Give the measured residual activity of Clc1ccc(Nc2nnc(Cc3ccncc3)c3ccccc23)cc1 .
Result: 98.8
